Source listed as the METLIN SMRT retention time set (Domingo-Almenara et al. 2019).

Experimental Details: gradient 5% acetonitrile 3 min, to 50% in 2 min, to 85% in 15 min, held 3 min, 100 µL/min
Study Conditions: column: Zorbax Extend-C18 2.1 x 50 mm; eluents: water / acetonitrile, 0.1% formic acid
Property Measured: RP-LC retention time (s)

>  <Compound>
Cc1ccc(C)c(NC(=O)C2CCN(C(=O)C3Sc4ccccc4NC3=O)CC2)c1 (centres undefined)

>  <RP-LC retention time / s>
760

$$$$
>  <Compound>
C=Cc1ccc(Cn2nc(-c3nc(-c4ccc(F)cc4)no3)ccc2=O)cc1

>  <RP-LC retention time / s>
1200

$$$$
>  <Compound>
O=C(Cn1cccc(-c2nc(-c3ccccc3)no2)c1=O)Nc1ccc2c(c1)OCO2

>  <RP-LC retention time / s>
815

$$$$
>  <Compound>
Cc1ccc(S(=O)(=O)N(C)CC2CCOCC2)cc1F

>  <RP-LC retention time / s>
850

$$$$

* * *

Experimental Details: gradient 5% acetonitrile 3 min, to 50% in 2 min, to 85% in 15 min, held 3 min, 100 µL/min
Study Conditions: column: Zorbax Extend-C18 2.1 x 50 mm; eluents: water / acetonitrile, 0.1% formic acid
Property Measured: RP-LC retention time (s)

>  <Compound>
O=C(c1csc(S(=O)(=O)N2CCC(C(=O)N3CCCC3)CC2)c1)N1CCCCCC1

>  <RP-LC retention time, s>
769

$$$$
>  <Compound>
Cc1nc(C2CCN(C(=O)CCc3c[nH]c4ccccc34)CC2)n[nH]1

>  <RP-LC retention time, s>
603

$$$$
>  <Compound>
NS(=O)(=O)c1ccc(NS(=O)(=O)c2cc(-c3ccno3)cs2)cc1

>  <RP-LC retention time, s>
710

$$$$
>  <Compound>
COc1cc([C@@H]2c3cc4c(cc3[C@H](O)[C@@H](CO)[C@@H]2C(=O)Nc2ccc(C)cc2)OCO4)cc(OC)c1OC

>  <RP-LC retention time, s>
763

$$$$
>  <Compound>
Cc1ccc(-n2nc(N3CCN(C(=O)C4CC4)CC3)ccc2=O)cc1C

>  <RP-LC retention time, s>
749

$$$$

[a] CC(C)n1c(=O)c2ccccc2n(Cc2nc(-c3ccccc3Br)no2)c1=O
[b] CCCC(=O)Nc1cc(-c2nc3ccc(C)cc3[nH]2)ccc1C
Input line: Response body: label of entry with the larger RP-LC retention time; valid values a , b . State the label of the item chosen.
Output line: a

* * *

Experimental Details: gradient 5% acetonitrile 3 min, to 50% in 2 min, to 85% in 15 min, held 3 min, 100 µL/min
Study Conditions: column: Zorbax Extend-C18 2.1 x 50 mm; eluents: water / acetonitrile, 0.1% formic acid
Property Measured: RP-LC retention time (s)

>  <Compound>
COc1ccc(OC)c(-c2nnc(SCC(=O)Nc3nccs3)o2)c1

>  <RP-LC retention time (s)>
693

$$$$
>  <Compound>
O=C(CSc1ccc(N2CCCC(C(=O)NC3CC3)C2)nn1)Nc1ccc(F)c(F)c1 (stereo not drawn)

>  <RP-LC retention time (s)>
680

$$$$
>  <Compound>
Cc1nnc(N2CCCC(C(=O)NCc3cccs3)C2)c2nn(-c3ccc(Cl)cc3)c(C)c12 (stereo not drawn)

>  <RP-LC retention time (s)>
742

$$$$

* * *

Experimental Details: gradient 5% acetonitrile 3 min, to 50% in 2 min, to 85% in 15 min, held 3 min, 100 µL/min
Study Conditions: column: Zorbax Extend-C18 2.1 x 50 mm; eluents: water / acetonitrile, 0.1% formic acid
Property Measured: RP-LC retention time (s)

// solved cases for RP-LC retention time follow
>  <Compound>
Cc1ccc(NC(=O)N2CCC(N3CCN(Cc4ccccc4)C3=O)CC2)c(C)c1

>  <RP-LC retention time / s>
843

$$$$
>  <Compound>
CCN(C(=O)c1cccc(F)c1)c1nc(-c2ccccc2)cs1

>  <RP-LC retention time / s>
1230

$$$$
>  <Compound>
O=C1CCN(C(=O)C2CCN(C(=O)CC3CCCC3)CC2)CCCCCCN1

>  <RP-LC retention time / s>
686

$$$$
>  <Compound>
Cc1cc(CNC(=O)C2(c3ccc(F)cc3)CC2)c(C)o1

>  <RP-LC retention time / s>
900

$$$$
>  <Compound>
COc1cccc(C2CC(c3ccc(Br)cc3)=NC3(CCN(C(C)=O)CC3)N2)c1O (stereo not drawn)

>  <RP-LC retention time / s>
694

$$$$

[A] CC(C)Oc1ccc(-c2nc3ncccn3c2NC2CCCCC2)cc1
[B] COCCN1CCC(N2CCN(S(=O)(=O)c3ccc(OC)c(Cl)c3)CC2)C1=O (stereo not drawn)
Input line: Response body: label of entry with the larger RP-LC retention time; valid values A , B . State the label of the item chosen.
Output line: A
